# MEASURED_ON: E3 ubiquitin-protein ligase XIAP (Homo sapiens)
# METHOD_SUMMARY: Induction of XIAP degradation in smac mimetic-sensitive human MDA-MB-231 cells at 5 uM measured after 24 hrs by Western blot analysis
Active and inactive are the calls of the source. No cut-off for these calls is given here.
Outcomes you can answer with include only these: active, inactive

The examples below pair each entry with its known result.
CC[C@H](NC)C(=O)N[C@@H]1C(=O)N2[C@@H](CC[C@@H]1CNC(=O)c1ccccc1)CC[C@H]2C(=O)N[C@H](C(=O)NCCN(Cc1ccccn1)Cc1ccccn1)c1ccccc1    inactive
CC[C@H](NC)C(=O)N[C@@H]1C(=O)N2[C@@H](CC[C@@H]1CNC(=O)CCNC(=O)CN(Cc1ccccn1)Cc1ccccn1)CC[C@H]2C(=O)NC(c1ccccc1)c1ccccc1    inactive
CC[C@H](NC)C(=O)N[C@@H]1C(=O)N2[C@@H](CC[C@@H]1CNC(=O)c1ccccc1)CC[C@H]2C(=O)NC(c1ccccc1)c1ccccc1    inactive
CC[C@H](NC)C(=O)N[C@@H]1C(=O)N2[C@@H](CC[C@@H]1CNC(=O)CN(Cc1ccccn1)Cc1ccccn1)CC[C@H]2C(=O)NC(c1ccccc1)c1ccccc1    inactive
CC[C@H](NC)C(=O)N[C@@H]1C(=O)N2[C@@H](CC[C@@H]1CNC(=O)COCCOCCNC(=O)CN(Cc1ccccn1)Cc1ccccn1)CC[C@H]2C(=O)NC(c1ccccc1)c1ccccc1    inactive

Consider the record given below.
Request: State the result this test recorded for CC[C@H](NC)C(=O)N[C@@H]1C(=O)N2[C@@H](CC[C@@H]1CNC(=O)CCCCCCCCCCNC(=O)CN(Cc1ccccn1)Cc1ccccn1)CC[C@H]2C(=O)NC(c1ccccc1)c1ccccc1 .
Response: active

---

# Tested on: MDA-MB-231
# METHOD_SUMMARY: Cytotoxicity against human smac mimetic-sensitive human MDA-MB-231 cells after 24 hrs by CellTiter-Glo assay
# TEST_SETTINGS: MDA-MB-231, 24 h
RECORDED_ENDPOINT: pIC50
Scale: negative log10 of molar concentration, which is what pIC50 denotes.

CC[C@H](NC)C(=O)N[C@@H]1C(=O)N2[C@@H](CC[C@@H]1CNC(=O)c1ccccc1)CC[C@H]2C(=O)NC(c1ccccc1)c1ccccc1    5.39
CC[C@H](NC)C(=O)N[C@@H]1C(=O)N2[C@@H](CC[C@@H]1CNC(=O)CN(Cc1ccccn1)Cc1ccccn1)CC[C@H]2C(=O)NC(c1ccccc1)c1ccccc1    5.19

Okay, now this compound:
Recorded pIC50 (compound CC[C@H](NC)C(=O)N[C@@H]1C(=O)N2[C@@H](CC[C@@H]1CNC(=O)CCCCCCCCCCNC(=O)CN(Cc1ccccn1)Cc1ccccn1)CC[C@H]2C(=O)NC(c1ccccc1)c1ccccc1 ): 6.01
